system: HepG2 cells; experiment: MTT antiproliferative assay, HepG2 cells; assay type: cell-based; details: Homo sapiens, HepG2, 24 h, read-out: HepG2 IC50
I'd appreciate it if you could supply pIC50 values for the items below.
Answers are plain numbers, as −log10 of the molar value.

In the examples that follow, each entry is paired with its recorded pIC50.
Nc1ccc([Se]CC(=O)NOCc2ccccc2)cc1 5.12
CC(=O)Nc1ccc([Se]CC(=O)NOCc2ccccc2)cc1 4.28
O=CNc1ccc([Se]CC(=O)NOCc2ccccc2)cc1 4.08

// for each molecule in input: emit pIC50
1. O=C(O)CCC(=O)Nc1ccc([Se]CC(=O)NOCc2ccccc2)cc1
2. O=C(O)C=CC(=O)Nc1ccc([Se]CC(=O)NOCc2ccccc2)cc1

1: 4.31; 2: 4.14

// for each molecule in input: emit pIC50
1. O=C(C[Se]c1ccc(N=Nc2ccc(O)cc2)cc1)NOCc1ccccc1
2. CCOC(=O)C(C#N)=NNc1ccc([Se]CC(=O)NOCc2ccccc2)cc1

1: 4.58; 2: 4.80

----------
test system: C. albicans; assay: Agar diffusion assay, C. albicans; format: cell-based, Candida albicans; conditions: Candida albicans, read-out: C. albicans ZID (inhibition zone diameter)
I'd appreciate it if you could supply zone of inhibition at 20 µM values for the items below.
Answers are plain numbers, in mm.

In the examples that follow, each entry is paired with its recorded zone of inhibition at 20 µM.
O=C(C[Se]c1ccc(N2C(=O)c3ccccc3C2=O)cc1)NOCc1ccccc1 2
O=C(C[Se]c1ccc(NC(=O)CCl)cc1)NOCc1ccccc1 4
CC(=O)Nc1ccc([Se]CC(=O)NOCc2ccccc2)cc1 9

// for each molecule in input: emit zone of inhibition at 20 µM
1. O=C(O)C=CC(=O)Nc1ccc([Se]CC(=O)NOCc2ccccc2)cc1
2. O=CNc1ccc([Se]CC(=O)NOCc2ccccc2)cc1
3. Nc1ccc([Se]CC(=O)NOCc2ccccc2)cc1
4. CCOC(=O)C(C#N)=NNc1ccc([Se]CC(=O)NOCc2ccccc2)cc1
5. O=C(O)CCC(=O)Nc1ccc([Se]CC(=O)NOCc2ccccc2)cc1
6. O=C(C[Se]c1ccc(N=Nc2ccc(O)cc2)cc1)NOCc1ccccc1

1: 10; 2: 7; 3: 22; 4: 20; 5: 13; 6: 16

----------
assay: DPPH radical scavenging assay; settings: concentration causing 50% decrease in absorbance, DPPH assay
Readout type: pIC50
Give bare numbers, as −log10 of the molar value.

Compound	pIC50
O=C1O[C@H]([C@@H](O)CO)C(O)=C1O [Vitamin C, ascorbic acid, reference compound]	4.72

Okay, now this compound:
Given the compound Nc1ccc([Se]CC(=O)NOCc2ccccc2)cc1 [Compound 8] , what is its reported pIC50? 4.63

----------
assay: ABTS radical scavenging assay; details: compounds 50 µL, 1 mM in MeOH; ABTS solution 60 µL; absorbance at 734 nm
Readout type: antioxidant (scavenging) activity in the ABTS assay (%)
Answers are plain numbers, in %.

In the examples that follow, each entry is paired with its recorded antioxidant (scavenging) activity in the ABTS assay.
Compound	Display unit	Assay value
Nc1ccc([Se]CC(=O)NOCc2ccccc2)cc1 [Compound 8]	%	73.9
O=C(C[Se]c1ccc(N2C(=O)c3ccccc3C2=O)cc1)NOCc1ccccc1 [Compound 13]	%	87.0
O=CNc1ccc([Se]CC(=O)NOCc2ccccc2)cc1 [Compound 10]	%	64.7

Given the compound O=C1O[C@H]([C@@H](O)CO)C(O)=C1O [Vitamin C, ascorbic acid, reference compound] , what is its reported antioxidant (scavenging) activity in the ABTS assay? 88.4
